assay: Oral bioavailability in Sprague-Dawley rat at 1 mg/kg; format: ADME, organism-based; conditions: in vivo
Tag: fulfilled if measured bioavailability is not below 70%, not fulfilled if it is.

Confirm if bioavailability reported for the compound O=S(=O)(Nc1cc(-c2ccc3ncc(N4CCOCC4)nc3c2)cnc1Cl)c1ccc(F)cc1 is 70% or above.
fulfilled

Confirm if bioavailability reported for the compound O=S(=O)(Nc1cc(-c2ccc3nccc(-c4cccnc4)c3c2)cnc1Cl)c1ccc(F)cc1 is 70% or above.
fulfilled

Confirm if bioavailability reported for the compound O=S(=O)(Nc1cc(-c2ccc3ncc(NCCN4CCCCC4)nc3c2)cnc1Cl)c1ccc(F)cc1 is 70% or above.
not fulfilled

###

test: AUC in Sprague-Dawley rat at 1 mg/kg, po; assay type: ADME, organism-based; set-up: dose 1 mg/kg, route oral; conditions: plasma
Measurement kind: AUC (ng·h/mL)
Give bare numbers, in ng·h/mL.

Each molecule below has a reported value. Please supply its AUC.
1. O=S(=O)(Nc1cc(-c2ccc3ncc(N4CCOCC4)nc3c2)cnc1Cl)c1ccc(F)cc1
2. O=S(=O)(Nc1cc(-c2ccc3nccc(-c4ccncc4)c3c2)cnc1Cl)c1ccc(F)cc1
3. O=S(=O)(Nc1cc(-c2ccc3ncc(NCCN4CCCCC4)nc3c2)cnc1Cl)c1ccc(F)cc1

[29600, 14700, 271]

Each molecule below has a reported value. Please supply its AUC.
1. O=S(=O)(Nc1cc(-c2ccc3nccc(-c4cccnc4)c3c2)cnc1Cl)c1ccc(F)cc1
2. CC(C)N1CCN(c2cnc3ccc(-c4cnc(Cl)c(NS(=O)(=O)c5ccc(F)cc5)c4)cc3n2)CC1

1: 5630; 2: 10800

###

experiment: in vivo; settings: Sprague-Dawley, rat, iv, 1 mg/kg
Description: Mean residence time in Sprague-Dawley rat at 1 mg/kg, iv
Kindly supply the reported MRT values for the records listed here.
Give bare numbers, in h.

Below are worked cases with known answers.
> print(dat)
                           smiles.structure  readout.number
1  CC(C)N1CCN(c2cnc3ccc(-c4cnc(Cl)c(NS(=O)(=O)c5ccc(F)cc5)c4)cc3n2)CC1             5.4
2  O=S(=O)(Nc1cc(-c2ccc3nccc(-c4ccncc4)c3c2)cnc1Cl)c1ccc(F)cc1              15
3  O=S(=O)(Nc1cc(-c2ccc3ncc(N4CCOCC4)nc3c2)cnc1Cl)c1ccc(F)cc1               9

# evaluate next
For O=S(=O)(Nc1cc(-c2ccc3nccc(-c4cccnc4)c3c2)cnc1Cl)c1ccc(F)cc1 , write its MRT.
6.3

###

target: Phosphatidylinositol 4,5-bisphosphate 3-kinase catalytic subunit alpha isoform (Homo sapiens, UniProt P42336)
Sequence (P42336 whole entry, canonical isoform): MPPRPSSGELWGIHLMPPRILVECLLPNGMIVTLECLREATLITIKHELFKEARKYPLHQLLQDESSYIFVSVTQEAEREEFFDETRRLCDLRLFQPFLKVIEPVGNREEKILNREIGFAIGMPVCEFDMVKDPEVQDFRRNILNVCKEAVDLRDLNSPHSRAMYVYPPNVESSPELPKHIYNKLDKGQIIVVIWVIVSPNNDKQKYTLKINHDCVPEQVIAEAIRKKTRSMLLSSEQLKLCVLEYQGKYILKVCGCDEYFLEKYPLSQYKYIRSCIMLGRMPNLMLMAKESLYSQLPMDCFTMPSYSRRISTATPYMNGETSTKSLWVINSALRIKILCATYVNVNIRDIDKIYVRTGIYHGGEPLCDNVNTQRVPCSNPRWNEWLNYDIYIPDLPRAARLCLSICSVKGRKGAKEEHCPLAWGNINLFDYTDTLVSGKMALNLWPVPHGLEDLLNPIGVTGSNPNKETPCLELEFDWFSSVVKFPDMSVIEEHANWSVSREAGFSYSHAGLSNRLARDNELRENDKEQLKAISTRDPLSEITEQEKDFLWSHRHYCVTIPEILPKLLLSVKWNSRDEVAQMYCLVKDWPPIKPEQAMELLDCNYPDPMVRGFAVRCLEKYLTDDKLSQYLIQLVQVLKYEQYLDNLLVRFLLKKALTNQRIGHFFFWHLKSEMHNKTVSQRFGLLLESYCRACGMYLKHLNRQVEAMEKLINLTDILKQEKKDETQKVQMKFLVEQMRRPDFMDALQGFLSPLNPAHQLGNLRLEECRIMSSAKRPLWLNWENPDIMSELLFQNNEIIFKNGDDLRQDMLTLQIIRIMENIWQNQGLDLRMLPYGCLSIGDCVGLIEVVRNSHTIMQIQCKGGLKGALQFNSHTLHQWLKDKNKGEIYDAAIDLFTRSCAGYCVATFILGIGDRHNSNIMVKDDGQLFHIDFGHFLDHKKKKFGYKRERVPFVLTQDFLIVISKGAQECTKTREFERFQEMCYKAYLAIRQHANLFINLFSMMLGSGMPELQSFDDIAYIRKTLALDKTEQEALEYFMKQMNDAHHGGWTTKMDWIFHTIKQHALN
pIC50: −log10 of the molar value.
Tag: True if measured pIC50 is not below 7, False if it is.

Check out these entries, answers already filled in.
> print(dat)
                                   compound    cat
1  O=S(=O)(Nc1cc(-c2cc3cccnc3cn2)cnc1Cl)c1ccc(F)cc1  False
2  O=S(=O)(Nc1cc(-c2ccc3ncc(N4C[C@H]5CC[C@H](CC5)C4)nc3c2)cnc1Cl)c1ccc(F)cc1  False
3  CC(C)N1CCN(c2cnc3ccc(-c4cnc(Cl)c(NS(=O)(=O)c5ccc(F)cc5)c4)cc3n2)CC1   True

Confirm if pIC50 reported for the compound O=S(=O)(Nc1cc(-c2ccc3ncc(NCC4CCCNC4)nc3c2)cnc1Cl)c1ccc(F)cc1 (stereo not given) is 7 or above.
False

Confirm if pIC50 reported for the compound O=S(=O)(Nc1cc(-c2ccc3nnccc3c2)cnc1Cl)c1ccc(F)cc1 is 7 or above.
False

###

assay: in vivo; conditions: nude CD1, mouse, plasma, po, 1 mg/kg
Description: Plasma concentration in nude CD1 mouse at 1 mg/kg, po measured after 3 hrs
Kindly supply the reported concentration at 3 h values for the records listed here.
Numbers only, in ng/mL.

> print(dat)
                           smiles.structure  readout.number
1  O=S(=O)(Nc1cc(-c2ccc3nccc(-c4cccnc4)c3c2)cnc1Cl)c1ccc(F)cc1             899

# evaluate next
For O=S(=O)(Nc1cc(-c2ccc3nccc(-c4ccncc4)c3c2)cnc1Cl)c1ccc(F)cc1 , write its concentration at 3 h.
950

###

target: Phosphatidylinositol 3-kinase catalytic subunit type 3 (Homo sapiens, UniProt Q8NEB9)
Sequence (Q8NEB9 whole entry): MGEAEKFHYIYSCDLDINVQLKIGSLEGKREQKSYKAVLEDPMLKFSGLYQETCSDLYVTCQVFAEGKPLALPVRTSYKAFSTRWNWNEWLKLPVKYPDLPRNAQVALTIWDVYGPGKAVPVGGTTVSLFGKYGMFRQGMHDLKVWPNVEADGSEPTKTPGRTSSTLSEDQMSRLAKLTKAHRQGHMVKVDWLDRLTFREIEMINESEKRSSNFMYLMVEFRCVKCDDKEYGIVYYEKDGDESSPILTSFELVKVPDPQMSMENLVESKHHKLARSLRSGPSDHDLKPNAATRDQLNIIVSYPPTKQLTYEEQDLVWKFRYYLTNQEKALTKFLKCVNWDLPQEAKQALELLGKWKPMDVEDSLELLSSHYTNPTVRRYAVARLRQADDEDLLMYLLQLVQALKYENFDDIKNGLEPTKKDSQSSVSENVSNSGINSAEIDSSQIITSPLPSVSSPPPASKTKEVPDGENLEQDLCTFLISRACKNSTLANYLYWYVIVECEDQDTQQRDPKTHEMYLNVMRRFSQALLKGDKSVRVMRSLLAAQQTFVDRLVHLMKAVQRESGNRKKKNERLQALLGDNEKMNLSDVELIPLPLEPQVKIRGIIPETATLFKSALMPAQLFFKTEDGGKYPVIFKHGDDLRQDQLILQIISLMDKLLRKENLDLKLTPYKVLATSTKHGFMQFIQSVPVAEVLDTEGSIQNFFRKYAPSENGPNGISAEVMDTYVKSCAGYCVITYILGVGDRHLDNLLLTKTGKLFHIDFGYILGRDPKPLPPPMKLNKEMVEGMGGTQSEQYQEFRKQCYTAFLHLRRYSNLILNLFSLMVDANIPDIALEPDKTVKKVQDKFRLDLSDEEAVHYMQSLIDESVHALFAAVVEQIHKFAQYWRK
Measurement kind: pIC50
Give bare numbers, as −log10 of the molar value.

Below are worked cases with known answers.
> print(dat)
                           smiles.structure  measurement.kind  readout.number
1  O=S(=O)(Nc1cc(-c2ccc3ncc(N4CCOCC4)nc3c2)cnc1Cl)c1ccc(F)cc1             pIC50            8.30
2  O=S(=O)(Nc1cc(-c2ccc3nccc(-c4cccnc4)c3c2)cnc1Cl)c1ccc(F)cc1             pIC50            8.54

For O=S(=O)(Nc1cc(-c2ccc3nccc(-c4ccncc4)c3c2)cnc1Cl)c1ccc(F)cc1 , write its pIC50.
8.28

###

Kindly supply the reported IC50 values for the records listed here.
molecular target: Phosphatidylinositol 4,5-bisphosphate 3-kinase catalytic subunit gamma isoform (Homo sapiens, UniProt P48736)
Sequence (P48736 whole entry, canonical isoform): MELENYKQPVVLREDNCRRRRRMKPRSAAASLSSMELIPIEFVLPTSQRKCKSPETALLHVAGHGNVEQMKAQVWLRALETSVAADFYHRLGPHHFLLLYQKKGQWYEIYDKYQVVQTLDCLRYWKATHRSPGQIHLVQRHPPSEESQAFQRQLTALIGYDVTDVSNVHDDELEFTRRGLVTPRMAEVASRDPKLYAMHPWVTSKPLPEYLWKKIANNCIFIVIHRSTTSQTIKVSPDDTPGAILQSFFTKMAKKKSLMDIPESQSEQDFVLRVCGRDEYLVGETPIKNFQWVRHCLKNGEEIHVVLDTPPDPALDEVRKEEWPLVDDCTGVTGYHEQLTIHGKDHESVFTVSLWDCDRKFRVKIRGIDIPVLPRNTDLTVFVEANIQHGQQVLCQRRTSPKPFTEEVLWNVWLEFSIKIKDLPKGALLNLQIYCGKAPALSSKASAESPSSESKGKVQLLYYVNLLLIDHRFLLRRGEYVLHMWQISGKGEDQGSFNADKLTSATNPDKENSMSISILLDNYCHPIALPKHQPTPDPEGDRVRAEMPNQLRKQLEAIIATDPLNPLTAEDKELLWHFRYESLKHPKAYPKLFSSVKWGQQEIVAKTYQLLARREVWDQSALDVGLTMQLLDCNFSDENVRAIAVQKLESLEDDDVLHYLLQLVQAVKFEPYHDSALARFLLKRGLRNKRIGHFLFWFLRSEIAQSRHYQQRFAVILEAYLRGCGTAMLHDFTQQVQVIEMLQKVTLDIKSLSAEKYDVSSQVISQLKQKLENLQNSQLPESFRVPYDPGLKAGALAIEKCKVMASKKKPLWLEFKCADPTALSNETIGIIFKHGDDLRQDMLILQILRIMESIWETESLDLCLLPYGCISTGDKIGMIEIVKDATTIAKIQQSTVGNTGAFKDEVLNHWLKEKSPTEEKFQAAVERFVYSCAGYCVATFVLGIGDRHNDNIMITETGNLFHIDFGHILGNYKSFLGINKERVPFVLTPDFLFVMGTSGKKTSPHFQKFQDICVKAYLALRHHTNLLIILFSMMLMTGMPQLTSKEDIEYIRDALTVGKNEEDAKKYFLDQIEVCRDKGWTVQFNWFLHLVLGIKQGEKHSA
Answers are plain numbers, in nM.

> print(dat)
                           smiles.structure  measurement.kind  readout.number
1  O=S(=O)(Nc1cc(-c2ccc3nccc(-c4cccnc4)c3c2)cnc1Cl)c1ccc(F)cc1              IC50             7.7

Each compound below has a reported value. Please supply its IC50.
1. O=S(=O)(Nc1cc(-c2ccc3ncc(N4CCOCC4)nc3c2)cnc1Cl)c1ccc(F)cc1
2. CC(C)N1CCN(c2cnc3ccc(-c4cnc(Cl)c(NS(=O)(=O)c5ccc(F)cc5)c4)cc3n2)CC1
3. O=S(=O)(Nc1cc(-c2ccc3nccc(N4CCN(Cc5ccncc5)CC4)c3c2)cnc1Cl)c1ccc(F)cc1

1. 2.4
2. 13
3. 6.5

Each compound below has a reported value. Please supply its IC50.
1. O=S(=O)(Nc1cc(-c2ccc3nccc(-c4ccncc4)c3c2)cnc1Cl)c1ccc(F)cc1
2. O=S(=O)(Nc1cc(-c2ccc3ncc(NCCN4CCOCC4)nc3c2)cnc1Cl)c1ccc(F)cc1

13
16

###

experiment: in vitro; conditions: human, liver microsomes
Description: Clearance in human liver microsomes assessed as compound remaining at 1 uM after 30 mins
Measurement kind: microsomal CLint at 0.5 h, 1 µM

> print(dat)
                           smiles.structure                 measurement.kind          result
1  O=S(=O)(Nc1cc(-c2ccc3nccc(-c4ccncc4)c3c2)cnc1Cl)c1ccc(F)cc1  microsomal CLint at 0.5 h, 1 µM  < 14 µL/min/mg

Each compound below has a reported value. Please supply its microsomal CLint at 0.5 h, 1 µM.
1. O=S(=O)(Nc1cc(-c2ccc3ncc(N4CCOCC4)nc3c2)cnc1Cl)c1ccc(F)cc1
2. O=S(=O)(Nc1cc(-c2ccc3nccc(-c4cccnc4)c3c2)cnc1Cl)c1ccc(F)cc1

1. < 14 µL/min/mg
2. < 14 µL/min/mg

###

Kindly supply the reported Ki values for the records listed here.
target: Phosphatidylinositol 4,5-bisphosphate 3-kinase catalytic subunit alpha isoform (Homo sapiens, UniProt P42336)
Numbers only, in nM.

Below are worked cases with known answers.
> print(dat)
                                   compound  readout.number
1  O=S(=O)(Nc1cc(-c2cc3cccnc3cn2)cnc1Cl)c1ccc(F)cc1             200
2  O=S(=O)(Nc1cc(-c2ccc3ncc(NCC4CCCNC4)nc3c2)cnc1Cl)c1ccc(F)cc1 (configuration not stated)             3.3
3  O=S(=O)(Nc1cc(-c2ccc3ncc(N4CCC(F)(F)CC4)nc3c2)cnc1Cl)c1ccc(F)cc1             0.6
4  O=S(=O)(Nc1cc(-c2ccc3ncc(N4CCCCC4)nc3c2)cnc1Cl)c1ccc(F)cc1             0.9
5  O=S(=O)(Nc1cc(-c2ccc3nnccc3c2)cnc1Cl)c1ccc(F)cc1              38
6  CN(C)c1ccc(-c2ccnc3ccc(-c4cnc(Cl)c(NS(=O)(=O)c5ccc(F)cc5)c4)cc23)cc1             0.7

# evaluate next
For CN(C)c1ccnc2ccc(-c3cnc(Cl)c(NS(=O)(=O)c4ccc(F)cc4)c3)cc12 , write its Ki.
5.7

###

molecular target: Phosphatidylinositol 4,5-bisphosphate 3-kinase catalytic subunit alpha isoform (Homo sapiens)
Measurement kind: log10(IC50) (log10 of the value in µM)
Values below are the log10 of the recorded IC50, with µM as the unit.

> print(dat)
                           smiles.structure  readout.number
1  CN(C)c1ccc(-c2ccnc3ccc(-c4cnc(Cl)c(NS(=O)(=O)c5ccc(F)cc5)c4)cc23)cc1           -1.21
2  O=S(=O)(Nc1cc(-c2ccc3nccc(-c4ccccc4)c3c2)cnc1Cl)c1ccc(F)cc1           -0.90
3  O=S(=O)(Nc1cc(-c2ccc3nccc(N4CCN(Cc5ccccc5)CC4)c3c2)cnc1Cl)c1ccc(F)cc1           -0.87
4  CN(C)c1ccnc2ccc(-c3cnc(Cl)c(NS(=O)(=O)c4ccc(F)cc4)c3)cc12           -0.65

Each compound below has a reported value. Please supply its log10(IC50).
1. COCCNc1ccnc2ccc(-c3cnc(Cl)c(NS(=O)(=O)c4ccc(F)cc4)c3)cc12
2. O=S(=O)(Nc1cc(-c2ccc3nccc(N4CCC(O)CC4)c3c2)cnc1Cl)c1ccc(F)cc1

0.01
-0.82

Each compound below has a reported value. Please supply its log10(IC50).
1. O=S(=O)(Nc1cc(-c2ccc3ncc(N4CCC(F)(F)CC4)nc3c2)cnc1Cl)c1ccc(F)cc1
2. O=S(=O)(Nc1cc(-c2ccc3ncc(N4CCCCC4)nc3c2)cnc1Cl)c1ccc(F)cc1
3. O=S(=O)(Nc1cc(-c2ccc3nccc(N4CCN(Cc5ccncc5)CC4)c3c2)cnc1Cl)c1ccc(F)cc1
4. O=S(=O)(Nc1cc(-c2ccc3ncccc3c2)cnc1Cl)c1ccc(F)cc1

1. -0.72
2. -0.89
3. -1.74
4. -0.42
